Test system: Two-spotted spider mite (Tetranychus urticae)
TEST DETAILS: Acaricidal action on two-spotted spider mite (kidney bean leaf disk spray)
Format: in vivo
CONDITION SUMMARY: 500 ppm, adult females, 25° C., two days after treatment
QUANTITY MEASURED: acaricidal efficacy (corrected mortality rate), activity level

// Input: CCS(=O)(=O)n1c(-n2cnc(CCc3ccc(Cl)cc3)c2)nc2ccccc21 [Compound 1-12] . Output its acaricidal efficacy (corrected mortality rate), activity level only.
D or higher

// Input: CCS(=O)(=O)n1c(-n2cc(/C=C/C(=O)OCC34CC5CC(CC(C5)C3)C4)c(C(F)(F)F)n2)nc2ccccc21 [Compound 2-116] . Output its acaricidal efficacy (corrected mortality rate), activity level only.
D or higher

// Input: CCS(=O)(=O)n1c(-n2cc(CCc3ccccc3)c(C#N)n2)nc2ccccc21 [Compound 2-109] . Output its acaricidal efficacy (corrected mortality rate), activity level only.
D or higher

// Input: CCOC(=O)c1cn(-c2nc3ccccc3n2S(=O)(=O)CC)nc1C(F)F [Compound 2-33] . Output its acaricidal efficacy (corrected mortality rate), activity level only.
D or higher

* * *

Tested on: Small brown planthopper (Laodelphax striatellus)
TEST DETAILS: Insecticidal test on small brown planthopper (rice seedling dip)
Format: in vivo
CONDITION SUMMARY: 500 ppm, rice seedlings dipped 30 seconds, ten 3rd-instar larvae, 8 days after inoculation
Description: Insecticidal Test on Small Brown Planthopper (Laodelphax striatellus) The benzimidazole compounds represented by the general formula (1) of the present invention or salts thereof were separately dispersed in water and diluted to 500 ppm. Rice plant seedlings (variety: Nihonbare) were dipped in the agrochemical dispersions for 30 seconds. […]
QUANTITY MEASURED: insecticidal efficacy (corrected mortality rate), activity level

// Input: C=Cc1cn(-c2nc3ccccc3n2S(=O)(=O)CC)nc1C(F)(F)F . Output its insecticidal efficacy (corrected mortality rate), activity level only.
D or higher

// Input: CCS(=O)(=O)n1c(-n2cc(SC(C)C)c(C(F)(F)F)n2)nc2ccccc21 . Output its insecticidal efficacy (corrected mortality rate), activity level only.
D or higher

// Input: CCS(=O)(=O)n1c(-n2ccc(C(F)(F)F)n2)nc2ccccc21 . Output its insecticidal efficacy (corrected mortality rate), activity level only.
D or higher

// Input: CCS(=O)(=O)n1c(-n2nc(C(F)(F)F)cc2C)nc2ccccc21 . Output its insecticidal efficacy (corrected mortality rate), activity level only.
D or higher

// Input: CCS(=O)(=O)n1c(-n2cnc(C(F)(C(F)(F)F)C(F)(F)F)c2)nc2ccccc21 . Output its insecticidal efficacy (corrected mortality rate), activity level only.
D or higher

// Input: CCS(=O)(=O)n1c(-n2cnc(CCc3ccccc3)c2)nc2ccccc21 . Output its insecticidal efficacy (corrected mortality rate), activity level only.
D or higher

# ---- query molecule ----
// Input: CCS(=O)(=O)n1c(-n2cc(C(=O)Oc3c(C)cccc3C)c(C(F)(F)F)n2)nc2ccccc21 . Output its insecticidal efficacy (corrected mortality rate), activity level only.
D or higher

* * *

System: Two-spotted spider mite (Tetranychus urticae)
TEST DETAILS: Acaricidal action on two-spotted spider mite (kidney bean leaf disk spray)
Assay type: in vivo
CONDITION SUMMARY: 500 ppm, adult females, 25° C., two days after treatment
QUANTITY MEASURED: acaricidal efficacy (corrected mortality rate), activity level

Observe how each entry below is paired with its result.
// Input: CCS(=O)(=O)n1c(-n2cnc(SC)n2)nc2ccccc21 . Output its acaricidal efficacy (corrected mortality rate), activity level only.
D or higher

// Input: CCS(=O)(=O)n1c(-n2cc(C#N)c(C(C)(C)C)n2)nc2ccccc21 . Output its acaricidal efficacy (corrected mortality rate), activity level only.
D or higher

// Input: CCS(=O)(=O)n1c(-n2cnc(C(=O)OC(C)(C)c3ccccc3)c2)nc2ccccc21 . Output its acaricidal efficacy (corrected mortality rate), activity level only.
D or higher

// Input: CCS(=O)(=O)n1c(-n2cc(/C=C/C(=O)OCC(C)(C)C)c(C(F)(F)F)n2)nc2ccccc21 . Output its acaricidal efficacy (corrected mortality rate), activity level only.
D or higher

// Input: CCCCCCCCc1cn(-c2nc3ccccc3n2S(C)(=O)=O)cn1 . Output its acaricidal efficacy (corrected mortality rate), activity level only.
D or higher

// Input: CCS(=O)(=O)n1c(-n2cc(C#CCOC(=O)C(C)(C)C)c(C(F)(F)F)n2)nc2ccccc21 . Output its acaricidal efficacy (corrected mortality rate), activity level only.
D or higher

// Input: CCOC(=O)/C=C/c1ccn(-c2nc3ccccc3n2S(=O)(=O)CC)n1 . Output its acaricidal efficacy (corrected mortality rate), activity level only.
D or higher

# ---- query molecule ----
// Input: CCS(=O)(=O)n1c(-n2cc(C(=O)NCC(F)(F)F)c(C(C)(C)C)n2)nc2ccccc21 . Output its acaricidal efficacy (corrected mortality rate), activity level only.
D or higher

Values were extracted from patent US12389911B2.
